tested-system: soluble human C3b (human)
measurement-protocol: cell-based or functional assay
Field 'label' (enum: yes / no). Set to yes when iC3b EC50 is strictly under 20 nM; else no.

[
  {
    "substance": "Const. No. 5: HSA-GGSSGG-hCFI; L307W (enzyme)",
    "qualitative-label": "no"
  },
  {
    "substance": "Const. No. 56: HSA-GGSSGG-hCFI; D395A; D425A (enzyme)",
    "qualitative-label": "yes"
  },
  {
    "substance": "Const. No. 23: HSA-GGSSGG-hCFI; R62E (enzyme)",
    "qualitative-label": "no"
  },
  {
    "substance": "Const. No. 6: HSA-GGSSGG-hCFI; L307Y (enzyme)",
    "qualitative-label": "no"
  },
  {
    "substance": "Const. No. 52: HSA-GGSSGG-hCFI; D395A (enzyme)",
    "qualitative-label": "no"
  },
  {
    "substance": "Const. No. 40: HSA-GGSSGG-hCFI; T59E (enzyme)",
    "qualitative-label": "no"
  },
  {
    "substance": "Const. No. 35: HSA-GGSSGG-hCFI; R371E (enzyme)",
    "qualitative-label": "no"
  },
  {
    "substance": "Const. No. 3: HSA-GGSSGG-hCFI; L307F (enzyme)",
    "qualitative-label": "yes"
  },
  {
    "substance": "Const. No. 53: HSA-GGSSGG-hCFI; D395G (enzyme)",
    "qualitative-label": "no"
  },
  {
    "substance": "Const. No. 7: HSA-GGSSGG-hCFI; P433A (enzyme)",
    "qualitative-label": "yes"
  },
  {
    "substance": "Const. No. 48: HSA-GGSSGG-hCFI; Δ(V565) > VG (enzyme)",
    "qualitative-label": "no"
  },
  {
    "substance": "Const. No. 27: HSA-GGSSGG-hCFI; E401R (enzyme)",
    "qualitative-label": "yes"
  },
  {
    "substance": "Const. No. 59: HSA-GGSSGG-hCFI; N402D (enzyme)",
    "qualitative-label": "no"
  },
  {
    "substance": "Const. No. 60: HSA-GGSSGG-hCFI; K368D (enzyme)",
    "qualitative-label": "no"
  },
  {
    "substance": "Const. No. 26: HSA-GGSSGG-hCFI; E401K (enzyme)",
    "qualitative-label": "yes"
  },
  {
    "substance": "Const. No. 47: HSA-GGSSGG-hCFI; R484E (enzyme)",
    "qualitative-label": "no"
  },
  {
    "substance": "Const. No. 4: HSA-GGSSGG-hCFI; L307H (enzyme)",
    "qualitative-label": "no"
  },
  {
    "substance": "Const. No. 16: HSA-GGSSGG-hCFI; S499V (enzyme)",
    "qualitative-label": "no"
  },
  {
    "substance": "Const. No. 21: HSA-GGSSGG-hCFI; K423R (enzyme)",
    "qualitative-label": "no"
  },
  {
    "substance": "Const. No. 28: HSA-GGSSGG-hCFI; E401A (enzyme)",
    "qualitative-label": "yes"
  },
  {
    "substance": "Const. No. 91: HSA-GGSSGG-hCFI; T377A; E457G; N531G (enzyme)",
    "qualitative-label": "yes"
  },
  {
    "substance": "Const. No. 39: HSA-GGSSGG-hCFI; A55P (enzyme)",
    "qualitative-label": "no"
  },
  {
    "substance": "Const. No. 42: HSA-GGSSGG-hCFI; L73D (enzyme)",
    "qualitative-label": "no"
  }
]

src = patent US20250011379A1
